Cited source: PubChem BioAssay AID1963867

- System: KRAS-mutant PDC tumor spheroid with HUVEC/MSC, viability
- assay notes: Anticancer human tumor 327498-153-R-J2-PDC patient-derived uterine carcinosarcoma cell line growth inhibition [KRAS2]
- condition set: second compound 10 µM; first compound 0.000316 µM; stronger effect = lower value
Measured viability, T/C determines class: low = under 20%, mid = from 20% up to 40%, high = 40% and over

Illustrative cases are given below, each with its answer.
molecule | answer label
CC(=O)Nc1cccc(-n2c(=O)n(C3CC3)c(=O)c3c(Nc4ccc(I)cc4F)n(C)c(=O)c(C)c32)c1 + C=CC(=O)N1CCN(c2nc(=O)n(-c3c(C)ccnc3C(C)C)c3nc(-c4c(O)cccc4F)c(F)cc23)C(C)C1 | high
CC(=O)Nc1cccc(-n2c(=O)n(C3CC3)c(=O)c3c(Nc4ccc(I)cc4F)n(C)c(=O)c(C)c32)c1 + COc1cc2nc(C)nc(NC(C)c3cc(N)cc(C(F)(F)F)c3)c2cc1OC1CCOC1 | mid
CC(=O)Nc1cccc(-n2c(=O)n(C3CC3)c(=O)c3c(Nc4ccc(I)cc4F)n(C)c(=O)c(C)c32)c1 + CC1OCC2(CCN(c3cnc(Sc4ccnc(N)c4Cl)c(N)n3)CC2)C1N | mid
Cn1ncnc1[C@H]1c2n[nH]c(=O)c3cc(F)cc(c23)N[C@@H]1c1ccc(F)cc1 + CNCc1ccccc1-c1csc(C(C)Nc2nc(C)nc3cc(OC)c(OC)cc23)c1 | low
CC(C)n1nc(-c2ccc3oc(N)nc3c2)c2c(N)ncnc21 + C=CC(=O)N1CCN(c2nc(=O)n(-c3c(C)ccnc3C(C)C)c3nc(-c4c(O)cccc4F)c(F)cc23)C(C)C1 | mid
CC(C)n1nc(-c2ccc3oc(N)nc3c2)c2c(N)ncnc21 + CNCc1ccccc1-c1csc(C(C)Nc2nc(C)nc3cc(OC)c(OC)cc23)c1 | low

In plain terms, what class is Cn1ncnc1[C@H]1c2n[nH]c(=O)c3cc(F)cc(c23)N[C@@H]1c1ccc(F)cc1 + COc1cc2nc(C)nc(NC(C)c3cc(N)cc(C(F)(F)F)c3)c2cc1OC1CCOC1 ?
high

In plain terms, what class is CC(=O)Nc1cccc(-n2c(=O)n(C3CC3)c(=O)c3c(Nc4ccc(I)cc4F)n(C)c(=O)c(C)c32)c1 + CNCc1ccccc1-c1csc(C(C)Nc2nc(C)nc3cc(OC)c(OC)cc23)c1 ?
low

In plain terms, what class is CC(C)n1nc(-c2ccc3oc(N)nc3c2)c2c(N)ncnc21 + COc1cc2nc(C)nc(NC(C)c3cc(N)cc(C(F)(F)F)c3)c2cc1OC1CCOC1 ?
mid

In plain terms, what class is CC(C)n1nc(-c2ccc3oc(N)nc3c2)c2c(N)ncnc21 + CC1OCC2(CCN(c3cnc(Sc4ccnc(N)c4Cl)c(N)n3)CC2)C1N ?
mid

* * *

- Tested on: KRAS-mutant PDC tumor spheroid with HUVEC/MSC, viability
- assay notes: Anticancer human tumor 327498-153-R-J2-PDC cell line growth inhibition [KRAS2];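 also: spheroids exposed to agents for seven days before reading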
- condition set: curve of first compound; second compound 3.16 µM
IC50 listing for selected molecules.

Using the record for CCN1CCN(Cc2ccc(Nc3ncc(F)c(-c4cc(F)c5nc(C)n(C(C)C)c5c4)n3)nc2)CC1 + C=CC(=O)N1CCN(c2nc(=O)n(-c3c(C)ccnc3C(C)C)c3nc(-c4c(O)cccc4F)c(F)cc23)C(C)C1 , report its IC50.
< 3.16 nM

Using the record for COc1cc2nccc(Oc3ccc(NC(=O)C4(C(=O)Nc5ccc(F)cc5)CC4)cc3)c2cc1OC + C=CC(=O)N1CCN(c2nc(=O)n(-c3c(C)ccnc3C(C)C)c3nc(-c4c(O)cccc4F)c(F)cc23)C(C)C1 , report its IC50.
1030 nM
